tested target: IKZF2 (Homo sapiens, UniProt Q96SW2+Q9UKS7)
Sequence (Q9UKS7 1-500 isoform Q9UKS7-2): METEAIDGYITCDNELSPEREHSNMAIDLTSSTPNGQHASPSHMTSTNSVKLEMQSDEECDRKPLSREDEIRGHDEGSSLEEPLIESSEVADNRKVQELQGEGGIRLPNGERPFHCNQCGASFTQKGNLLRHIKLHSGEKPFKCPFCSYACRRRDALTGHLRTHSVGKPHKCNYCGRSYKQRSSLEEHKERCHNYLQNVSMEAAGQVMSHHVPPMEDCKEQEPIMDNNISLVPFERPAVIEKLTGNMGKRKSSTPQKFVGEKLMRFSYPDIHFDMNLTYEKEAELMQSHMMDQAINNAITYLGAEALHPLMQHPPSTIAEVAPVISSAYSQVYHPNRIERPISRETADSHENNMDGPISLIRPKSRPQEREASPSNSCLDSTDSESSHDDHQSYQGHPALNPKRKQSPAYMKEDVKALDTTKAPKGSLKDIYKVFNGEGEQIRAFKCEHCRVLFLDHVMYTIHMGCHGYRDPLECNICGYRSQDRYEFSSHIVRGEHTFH
Sequence (Q96SW2 whole entry): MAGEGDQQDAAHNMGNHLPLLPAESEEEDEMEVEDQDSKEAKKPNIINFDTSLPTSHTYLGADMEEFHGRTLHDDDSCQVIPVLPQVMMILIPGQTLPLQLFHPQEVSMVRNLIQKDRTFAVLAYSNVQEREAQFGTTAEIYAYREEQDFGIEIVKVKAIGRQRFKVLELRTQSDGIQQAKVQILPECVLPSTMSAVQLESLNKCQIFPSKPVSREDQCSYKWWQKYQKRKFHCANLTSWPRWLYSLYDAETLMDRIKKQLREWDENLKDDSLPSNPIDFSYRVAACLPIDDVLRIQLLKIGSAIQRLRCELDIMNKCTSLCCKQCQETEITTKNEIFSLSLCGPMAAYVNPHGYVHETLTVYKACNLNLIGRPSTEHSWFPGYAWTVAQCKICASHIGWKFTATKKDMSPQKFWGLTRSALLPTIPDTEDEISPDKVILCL
Sequence (Q16531 whole entry partner): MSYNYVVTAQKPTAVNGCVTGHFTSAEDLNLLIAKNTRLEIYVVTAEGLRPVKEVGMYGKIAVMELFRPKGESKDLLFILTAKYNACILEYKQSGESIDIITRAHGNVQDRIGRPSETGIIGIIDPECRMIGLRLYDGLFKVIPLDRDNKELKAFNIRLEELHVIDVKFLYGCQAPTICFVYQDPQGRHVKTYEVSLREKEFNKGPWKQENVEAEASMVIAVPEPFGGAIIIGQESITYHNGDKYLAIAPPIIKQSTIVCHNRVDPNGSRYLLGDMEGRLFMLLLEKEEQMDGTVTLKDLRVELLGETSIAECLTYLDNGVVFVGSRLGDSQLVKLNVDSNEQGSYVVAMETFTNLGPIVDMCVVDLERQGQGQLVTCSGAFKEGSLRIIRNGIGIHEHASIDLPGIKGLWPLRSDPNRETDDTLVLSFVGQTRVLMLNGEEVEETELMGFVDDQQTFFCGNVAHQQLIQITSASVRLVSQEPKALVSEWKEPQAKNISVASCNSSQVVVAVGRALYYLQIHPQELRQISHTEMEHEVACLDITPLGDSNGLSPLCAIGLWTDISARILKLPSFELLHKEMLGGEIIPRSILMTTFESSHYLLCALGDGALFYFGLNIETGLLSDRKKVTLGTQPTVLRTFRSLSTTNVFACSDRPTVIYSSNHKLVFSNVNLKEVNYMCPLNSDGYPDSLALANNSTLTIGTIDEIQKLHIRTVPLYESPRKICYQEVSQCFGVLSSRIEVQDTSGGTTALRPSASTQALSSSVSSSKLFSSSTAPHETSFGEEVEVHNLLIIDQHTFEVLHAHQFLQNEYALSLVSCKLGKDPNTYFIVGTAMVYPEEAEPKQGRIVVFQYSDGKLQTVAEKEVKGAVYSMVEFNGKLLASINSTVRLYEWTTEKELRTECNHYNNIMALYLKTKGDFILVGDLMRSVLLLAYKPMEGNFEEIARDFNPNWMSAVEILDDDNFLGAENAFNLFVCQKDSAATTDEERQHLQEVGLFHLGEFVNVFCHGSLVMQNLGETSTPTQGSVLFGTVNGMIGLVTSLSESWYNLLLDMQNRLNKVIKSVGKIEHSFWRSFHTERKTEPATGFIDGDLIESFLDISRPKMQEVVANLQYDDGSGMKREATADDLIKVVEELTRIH
assay explanation: HEK293 HiBiT in vitro degradation of IKZF2
Assay type: cell-based
Design: expressed in transfected cells
condition description: HEK293, HEK293 HiBiT; maximum degradation at the highest concentration tested

compound | Dmax / %
O=C1CCC(N2Cc3c(ccc(C[C@H]4CCCC[C@@H]4NCC45CC(C4)C5)c3F)C2=O)C(=O)N1 (some centres unmarked) | 95
O=C1CCC(N2Cc3c(ccc(C[C@H]4CCCC[C@@H]4NC4CCOC4)c3F)C2=O)C(=O)N1 (some centres unmarked) | 97
C[C@@]1(O)CC[C@H](NC2CCC(F)(F)CC2)[C@@H](Cc2ccc3c(c2)CN(C2CCC(=O)NC2=O)C3=O)C1 (some centres unmarked) | 90
O=C1CC[C@H](N2Cc3c(ccc(C[C@H]4OCCC[C@@H]4N[C@H]4CC[C@@H](C(F)F)CC4)c3F)C2=O)C(=O)N1 | 96
O=C1CC[C@H](N2Cc3c(ccc(C[C@H]4OCCC[C@@H]4N[C@H]4CC[C@H](C(F)F)CC4)c3F)C2=O)C(=O)N1 (single isomer, unassigned) | 94
O=C1CCC(N2Cc3cc(C[C@H]4CCCC[C@@H]4NCC4CCC(F)(F)CC4)ccc3C2=O)C(=O)N1 (some centres unmarked) | 96
O=C1CCC(N2Cc3cc(C[C@H]4OCCC[C@@H]4NC4CCC(C(F)(F)F)CC4)ccc3C2=O)C(=O)N1 (single isomer, unassigned) | 76
O=C1CCC(N2Cc3cc(C[C@H]4CCCC[C@@H]4N4CC5(CN(Cc6ccccc6Cl)C5)C4)ccc3C2=O)C(=O)N1 (some centres unmarked) | 80
O=C1CC[C@@H](N2Cc3c(ccc(C[C@H]4OCCC[C@@H]4NC4CCCCC4)c3F)C2=O)C(=O)N1 (single isomer, unassigned) | 93
O=C1CCC(N2Cc3cc(C[C@H]4CCCC[C@@H]4NC4CCC5(CC4)CC5(F)F)ccc3C2=O)C(=O)N1 (single isomer, unassigned) | 98
CCOCC(C)N[C@H]1CCCC[C@@H]1Cc1ccc2c(c1)CN(C1CCC(=O)NC1=O)C2=O (some centres unmarked) | 92
C[C@H]1CCCC(N[C@H]2CCCC[C@@H]2Cc2ccc3c(c2)CN(C2CCC(=O)NC2=O)C3=O)C1 (some centres unmarked) | 98
O=C1CCC(N2Cc3cc(C[C@H]4CC(F)(F)CC[C@@H]4NC4CCCCC4)ccc3C2=O)C(=O)N1 (some centres unmarked) | 88
COCC1CCC(N[C@H]2CCCO[C@@H]2Cc2ccc3c(c2F)CN(C2CCC(=O)NC2=O)C3=O)CC1 (single isomer, unassigned) | 96
O=C1CCC(N2Cc3c(ccc(C[C@H]4OCCC[C@@H]4NCC4CC(F)(F)C4)c3F)C2=O)C(=O)N1 (some centres unmarked) | 73
[2H]C([2H])(N[C@H]1CCCC[C@@H]1Cc1ccc2c(c1)CN(C1CCC(=O)NC1=O)C2=O)c1ccccc1 (single isomer, unassigned) | 92
O=C1CC[C@H](N2Cc3cc(C[C@H]4CCCC[C@@H]4NC4CCC(F)(F)CC4)ccc3C2=O)C(=O)N1 (single isomer, unassigned) | 98
O=C1CCC(N2Cc3cc(C[C@H]4CCC[C@@H]4NC4CCC(F)(F)CC4)ccc3C2=O)C(=O)N1 (some centres unmarked) | 72
CC1(C)CC(N[C@H]2CCCC[C@@H]2Cc2ccc3c(c2)CN(C2CCC(=O)NC2=O)C3=O)CCO1 (some centres unmarked) | 96
CCCC(CCC)N[C@H]1CCCC[C@@H]1Cc1ccc2c(c1)CN(C1CCC(=O)NC1=O)C2=O (some centres unmarked) | 96
O=C1CCC(N2Cc3cc(C[C@H]4CCCC[C@@H]4NC4CCc5c(C(F)(F)F)n[nH]c5C4)ccc3C2=O)C(=O)N1 (some centres unmarked) [Example 375] | 99
CC1(C)OCCC1N[C@H]1CCCC[C@@H]1Cc1ccc2c(c1)CN(C1CCC(=O)NC1=O)C2=O (single isomer, unassigned) | 93
O=C1CCC(N2Cc3cc(C[C@H]4CCCC[C@@H]4NC4CCC(F)(F)CC4)ccc3C2=O)C(=O)N1 (some centres unmarked) | 94
